# maps each entry to its slope
biological target: Alpha-2C adrenergic receptor (Homo sapiens) (UniProt P18825); experiment: compounds altering alpha2C-coupled GIRK flux – cell-based, HEK293 alpha2C/GIRK1/2, thallium flux, primary screen (AID 624); conditions: thallium flux BTC fluorescence, at 10 µM, actives lie on both sides;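 also: slope of fluorescence ratio to pre-addition baseline per second over 15 to 24 s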
Sequence (P18825 whole entry, looked up): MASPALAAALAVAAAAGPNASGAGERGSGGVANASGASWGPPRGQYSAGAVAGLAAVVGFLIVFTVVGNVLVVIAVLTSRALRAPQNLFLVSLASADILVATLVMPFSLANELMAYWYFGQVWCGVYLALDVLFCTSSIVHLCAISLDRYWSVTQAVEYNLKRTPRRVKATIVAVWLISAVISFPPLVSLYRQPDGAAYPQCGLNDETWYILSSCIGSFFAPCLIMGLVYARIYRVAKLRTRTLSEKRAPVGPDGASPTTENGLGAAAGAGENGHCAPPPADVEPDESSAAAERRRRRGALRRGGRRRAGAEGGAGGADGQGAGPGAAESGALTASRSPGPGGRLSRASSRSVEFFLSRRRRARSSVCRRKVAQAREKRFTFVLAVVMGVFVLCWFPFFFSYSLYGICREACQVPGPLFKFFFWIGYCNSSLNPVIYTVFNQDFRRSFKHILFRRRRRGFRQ
Field format: numeric only.

> print(dat)
                                   compound  reported.endpoint  endpoint.result
1  CCOc1ccc(-c2cn(S(=O)(=O)c3cccc4nsnc34)nc2N)cc1              slope          0.00478
2  Cc1nnc(SCC(=O)N2CCN(S(=O)(=O)c3ccccc3)CC2)[nH]c1=O              slope          0.00552
3  Cc1ccc2cc(CN(Cc3ccc(F)cc3)Cc3nnnn3C3CCCC3)c(=O)[nH]c2c1              slope          0.00514
4  Cn1c(CCNC(=O)c2ccco2)nc2cc(NC(=O)C3CCCCC3)ccc21              slope          0.00612

Exercise: # input compound: "CCOC(=O)c1ccc(S(=O)(=O)Nc2cc(C(C)(C)C)no2)cc1" ; wanted: its slope
Key: 0.00811

Exercise: # input compound: "S=C(c1ccc(-c2cc(Cl)ccc2Cl)o1)N1CCOCC1" ; wanted: its slope
Key: 0.00341

Exercise: # input compound: "Cc1cc(C)nc(SC2=CS(=O)(=O)c3ccccc32)n1" ; wanted: its slope
Key: 0.00592

Exercise: # input compound: "O=C(NCCc1ccccn1)c1ccc(COc2ccccc2)o1" ; wanted: its slope
Key: 0.00624

Exercise: # input compound: "Cc1ccc2oc(=O)c3cnn(CC(=O)NCCC(C)C)c3c2c1" ; wanted: its slope
Key: 0.0065

Exercise: # input compound: COc1ccccc1NC(=O)C(C)NS(=O)(=O)c1ccc(F)cc1 (stereo unspecified) ; wanted: its slope
Key: 0.00634

Exercise: # input compound: CCOCCCNC(=O)c1ccc2c(c1)N(Cc1ccccc1)C(=O)CS2=O (stereo unspecified) ; wanted: its slope
Key: 0.00701

----------
biological target: Voltage-gated potassium channel subunit beta-2 (Rattus norvegicus) (UniProt P62483); assay: enhancers of rat Kvbeta2 NADPH turnover – biochemical, NADPH fluorescence, primary screen (AID 623); settings: Recombinant KvBeta, NADPH fluorescence decrease slope, 10 min; at 10 µM; stronger effect = lower value;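 also: fluorescence intensity change per second fitted from 20 to 320 s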
Sequence (P62483 whole entry, looked up): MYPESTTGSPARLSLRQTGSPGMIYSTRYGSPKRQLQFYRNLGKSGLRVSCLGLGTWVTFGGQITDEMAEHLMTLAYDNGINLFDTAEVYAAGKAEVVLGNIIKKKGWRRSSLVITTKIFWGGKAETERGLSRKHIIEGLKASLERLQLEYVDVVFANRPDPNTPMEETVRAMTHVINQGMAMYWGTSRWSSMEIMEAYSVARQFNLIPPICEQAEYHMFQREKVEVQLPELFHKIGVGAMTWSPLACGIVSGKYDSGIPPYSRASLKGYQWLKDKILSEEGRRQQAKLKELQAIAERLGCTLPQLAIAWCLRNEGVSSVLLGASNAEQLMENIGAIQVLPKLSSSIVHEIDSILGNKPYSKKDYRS
# maps each entry to its NADPH fluorescence slope
Field format: numeric only.

Reference set, count: 6
> print(dat)
                                   molecule                               test.target  endpoint.result
1  C/C=C/Cn1c(SCCCc2ccccc2)nc2c1c(=O)[nH]c(=O)n2C  Voltage-gated potassium channel subunit beta-2 (Rattus norvegicus) (UniProt P62483)         -1.9e-05
2  CCCNC(=O)CS(=O)(=O)Cc1nc(-c2cccc(OC)c2)oc1C  Voltage-gated potassium channel subunit beta-2 (Rattus norvegicus) (UniProt P62483)          4.4e-05
3  COc1cccc2cc(C(=O)C3=C(O)C(=O)N(CCCN4CCOCC4)C3c3ccncc3)oc12 (stereo not drawn)  Voltage-gated potassium channel subunit beta-2 (Rattus norvegicus) (UniProt P62483)         -7.1e-05
4  CCN1CCN(c2ncnc3c2oc2nc(C)c4c(c23)CC(C)(C)OC4)CC1  Voltage-gated potassium channel subunit beta-2 (Rattus norvegicus) (UniProt P62483)         -2.5e-05
5     C=CCn1c(SCC(=O)C(C)(C)C)nnc1-c1ccccn1  Voltage-gated potassium channel subunit beta-2 (Rattus norvegicus) (UniProt P62483)         -5.6e-05
6  CC1=C(C(N)=O)C(c2ccncc2)n2nc(-c3ccccc3Cl)nc2N1 (stereo not drawn)  Voltage-gated potassium channel subunit beta-2 (Rattus norvegicus) (UniProt P62483)         -2.9e-05

Exercise: # input molecule: Cc1nc2ccccc2c2oc(C(=O)NCC3COc4ccccc4O3)cc12 (stereo not drawn) ; wanted: its NADPH fluorescence slope
Key: -1.4e-05

Exercise: # input molecule: "Cn1c(SCC(=O)N2CCN(c3cccc(Cl)c3)CC2)nnc1-c1ccncc1" ; wanted: its NADPH fluorescence slope
Key: 2.3e-06

Exercise: # input molecule: "CC(C)Cc1nc(S(=O)(=O)c2ccc(Cl)cc2)c(N2CCOCC2)o1" ; wanted: its NADPH fluorescence slope
Key: -4.1e-05

----------
biological target: Voltage-gated potassium channel subunit beta-2 (Rattus norvegicus) (UniProt P62483); assay: enhancers of rat Kvbeta2 NADPH turnover – biochemical, NADPH fluorescence, primary screen (AID 623); conditions: Recombinant KvBeta, NADPH fluorescence decrease slope, 10 min; at 10 µM; stronger effect = lower value;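 also: fluorescence intensity change per second fitted from 20 to 320 s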
reported-endpoint: NADPH fluorescence slope
Field format: numeric only.

Reference set, count: 6
> print(dat)
                                   molecule                               test.target  endpoint.result
1  O=C(OCC(=O)N1CCC(Cc2ccccc2)CC1)c1ccc[nH]c1=O  Voltage-gated potassium channel subunit beta-2 (Rattus norvegicus) (UniProt P62483)         -9.5e-06
2  Cc1cccc(NC(=O)c2cc(NC(=O)c3ccco3)ccc2N2CCCCC2)c1  Voltage-gated potassium channel subunit beta-2 (Rattus norvegicus) (UniProt P62483)         -1.8e-05
3  O=C(O)c1ccc2c(c1)C(=O)N(c1ccc(Cl)cn1)C2=O  Voltage-gated potassium channel subunit beta-2 (Rattus norvegicus) (UniProt P62483)         -2.8e-05
4    CCCSc1nnc(-c2ccccc2NC(=O)CC)c(=O)[nH]1  Voltage-gated potassium channel subunit beta-2 (Rattus norvegicus) (UniProt P62483)         -4.2e-05
5  O=C(Cn1ncc2c(=O)oc3ccccc3c21)NCCCN1CCCC1=O  Voltage-gated potassium channel subunit beta-2 (Rattus norvegicus) (UniProt P62483)         -1.5e-05
6           CCCCOc1ccc(C(=O)N2CCC(C)CC2)cc1  Voltage-gated potassium channel subunit beta-2 (Rattus norvegicus) (UniProt P62483)         -5.1e-05

Exercise: # input molecule: "COc1c(S(=O)(=O)n2nc(C)cc2C)ccc(Cl)c1Cl" ; wanted: its NADPH fluorescence slope
Key: -7.2e-05

Exercise: # input molecule: "Cc1ccc(-c2oc3ccccc3c(=O)c2O)cc1" ; wanted: its NADPH fluorescence slope
Key: -2.7e-06

Exercise: # input molecule: "COC(=O)Nc1nc2c(C)cccc2s1" ; wanted: its NADPH fluorescence slope
Key: 9.8e-07

Exercise: # input molecule: COc1ccc(CC(=O)Nc2c3c(nn2-c2cccc(Cl)c2)CS(=O)C3)cc1 (stereo unspecified) ; wanted: its NADPH fluorescence slope
Key: 2.6e-05

Exercise: # input molecule: "COc1ccc(-c2nc3c(c(SCC(=O)N4CCOCC4)n2)COC(C)(C)C3)cc1" ; wanted: its NADPH fluorescence slope
Key: 1.1e-05

----------
target: Voltage-gated potassium channel subunit beta-2 (Rattus norvegicus); experiment: inhibitors of rat Kvbeta2 reductase activity – biochemical, NADPH fluorescence, primary screen (AID 622); conditions: recombinant KvBeta, 4-cyanobenzaldehyde reduction, at 10 µM, stronger effect = higher value;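 also: slope of raw intensity against log time taken from 70 to 1610 s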
# maps each entry to its fluorescence slope
Field format: numeric only.

> print(dat)
                                   compound                               test.target  endpoint.result
1  CCN(Cc1cc2ccccc2[nH]c1=O)S(=O)(=O)c1ccccc1  Voltage-gated potassium channel subunit beta-2 (Rattus norvegicus)           -0.627
2  Cc1nnc(SCC(=O)N2c3ccccc3CC2C)s1 (stereo not drawn)  Voltage-gated potassium channel subunit beta-2 (Rattus norvegicus)           -0.521
3  Cc1nc2cc(N3CCCCC3)c(NC(=O)c3cccnc3)cc2c(=O)n1Cc1ccccc1  Voltage-gated potassium channel subunit beta-2 (Rattus norvegicus)           -0.167
4     CC(=O)Nc1cccc(NC(=O)c2oc3ccccc3c2C)c1  Voltage-gated potassium channel subunit beta-2 (Rattus norvegicus)           -0.521

Exercise: # input compound: "O=c1c2cc(N3CCOCC3)ccc2[nH]c(=S)n1CCCN1CCCCC1" ; wanted: its fluorescence slope
Key: -0.0837

Exercise: # input compound: "C/C(Cl)=C/Cn1c(SCc2ccc(Cl)cc2)nc2c1c(=O)[nH]c(=O)n2C" ; wanted: its fluorescence slope
Key: -0.513

Exercise: # input compound: O=C(Cn1nc(Cc2cccnc2)c2ccccc2c1=O)NCC1CCCO1 (stereo not drawn) ; wanted: its fluorescence slope
Key: -0.553

Exercise: # input compound: "CCN(CC)S(=O)(=O)c1ccc2oc(SCc3ccc(F)cc3)nc2c1" ; wanted: its fluorescence slope
Key: -0.604

Exercise: # input compound: "Cc1c(NC(=O)CCc2ccc(S(=O)(=O)N3CCOCC3)cc2)c(=O)n(-c2ccccc2)n1C" ; wanted: its fluorescence slope
Key: -0.527

Exercise: # input compound: "O=S(=O)(c1ccc(Br)s1)N1CCN(c2ccccc2)CC1" ; wanted: its fluorescence slope
Key: -0.289

Exercise: # input compound: O=C(O)C1CCCCC1C(=O)NCCc1ccccc1 (stereo not drawn) ; wanted: its fluorescence slope
Key: -0.535

Exercise: # input compound: CC1CC(NC(=O)c2cnc3n(c2=O)CCS3)CC(C)(C)C1 (stereo not drawn) ; wanted: its fluorescence slope
Key: -0.56

Exercise: # input compound: CCC(C)(C(=O)NC1CCCC1)N(Cc1cccs1)C(C)=O (stereo not drawn) ; wanted: its fluorescence slope
Key: -0.491

Exercise: # input compound: "O=C(Nc1ccccc1C(=O)N1CCN(c2ccccc2)CC1)c1ccco1" ; wanted: its fluorescence slope
Key: -0.605

Exercise: # input compound: N#CC1=C(N)Oc2c(ccc3cccnc23)C1c1cccnc1 (stereo not drawn) ; wanted: its fluorescence slope
Key: -0.469

Exercise: # input compound: "CCCCP(=O)(CCCC)c1ccccc1C(=O)O" ; wanted: its fluorescence slope
Key: -0.421

Exercise: # input compound: "CCc1nc2sc(C)c(C)c2c(=O)n1CCO" ; wanted: its fluorescence slope
Key: -0.422

Exercise: # input compound: "C=CCn1c(SCC(=O)NC2CCCCC2)nnc1-c1sc(N)nc1C" ; wanted: its fluorescence slope
Key: -0.516

Exercise: # input compound: O=C(NCCN1C(=O)C2C3C=CC(C3)C2C1=O)N1CCCCC1 (stereo not drawn) ; wanted: its fluorescence slope
Key: -0.604

Exercise: # input compound: CCC(C)(C)n1nnnc1C(c1ccc(OC)c(OC)c1)N1CCN(c2ccc(F)cc2)CC1 (stereo not drawn) ; wanted: its fluorescence slope
Key: -0.442

Exercise: # input compound: "c1ccc2c(c1)nc(NC1CCCCC1)c1nncn12" ; wanted: its fluorescence slope
Key: -0.595

Exercise: # input compound: "O=C(CN1CCCN(S(=O)(=O)c2ccc(F)cc2)CC1)Nc1ccccc1Br" ; wanted: its fluorescence slope
Key: -0.504

Exercise: # input compound: "Cc1nnc(SCC(=O)Nc2ccc(Br)cn2)[nH]c1=O" ; wanted: its fluorescence slope
Key: -0.426
